testedTarget: T1, Mtb-SecB^TA chaperone (Rv1957), His6-tag removed (Mycobacterium tuberculosis, UniProt P95257 1-181)
T1 construct: SecB-like chaperone Mtb-SecB^TA (Rv1957) of Mycobacterium tuberculosis, 181 amino acids; untagged mass printed as 20,388 Da; Residues of the pET15b vector may remain after thrombin cleavage (surmised from the printed mass); For MST the protein was labelled with the dye NT-647; also called SecB-like chaperone; TA-associated SecB chaperone; not shown: His6, N-terminal, cleaved
T1 sequence: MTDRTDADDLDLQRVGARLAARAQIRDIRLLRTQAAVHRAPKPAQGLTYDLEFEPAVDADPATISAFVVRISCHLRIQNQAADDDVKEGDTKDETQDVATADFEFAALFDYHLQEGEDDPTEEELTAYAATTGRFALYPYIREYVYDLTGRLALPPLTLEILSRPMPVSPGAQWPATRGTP
experimentalDetails: ITC; ChAD peptide (80-620 µM) injected into Mtb-SecB^TA (18-48 µM) in the cell; 12 °C; 20 mM MES, 200 mM NaCl, pH 6.5; one set of sites; Kd and enthalpy printed once for direct and reverse conditions
testSettings: both partners purified
assayEndpoint: pKd
API: returns pKd as number; meaning -log10 of concentration in mol/L.

Consider the binder EVPTWHRLSSYRG (residues 104-116 of the antitoxin Mtb-HigA1 of Mycobacterium tuberculosis (chaperone addiction region); also called C4; 13-mer ChAD peptide) [ChAD peptide, Mtb-HigA1(104-116)] and give its measured pKd.
5.72

Reference for the values: paper PMC6377645
